- target_or_system: UDP-N-acetylmuramate--L-alanine ligase (Staphylococcus aureus, UniProt O31211)
- Sequence (O31211 whole entry): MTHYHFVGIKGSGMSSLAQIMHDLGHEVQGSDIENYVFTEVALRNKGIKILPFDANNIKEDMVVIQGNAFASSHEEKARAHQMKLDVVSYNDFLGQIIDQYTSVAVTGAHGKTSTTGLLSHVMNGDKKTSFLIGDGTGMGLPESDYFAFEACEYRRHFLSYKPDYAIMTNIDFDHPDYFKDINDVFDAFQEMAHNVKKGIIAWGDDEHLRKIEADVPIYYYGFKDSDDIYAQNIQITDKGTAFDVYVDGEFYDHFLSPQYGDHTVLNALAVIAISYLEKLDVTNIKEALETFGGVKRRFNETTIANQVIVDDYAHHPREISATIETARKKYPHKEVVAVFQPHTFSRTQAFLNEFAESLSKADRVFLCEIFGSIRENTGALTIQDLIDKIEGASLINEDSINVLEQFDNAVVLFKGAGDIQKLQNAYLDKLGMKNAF
- experimental_details: Inhibitory activity against MurC in Staphylococcus aureus
measure_name: pIC50
For clarity, pIC50 is expressed as the negative log10 of concentration in mol/L.

structure_string | target_or_system | pIC50
COc1cc(/C=C2\OC(O)=C(c3cc(Cl)cc(Cl)c3)C2=O)ccc1-c1ccccc1C(F)(F)F | UDP-N-acetylmuramate--L-alanine ligase (Staphylococcus aureus, UniProt O31211) | 4.40

So for O=C1O/C(=C\c2ccccc2-c2ccc(Cl)c(Cl)c2)C(O)=C1c1ccc(Cl)c(Cl)c1 , the logged pIC50 turned out to be 4.42

So for Cc1ccccc1-c1ccc(/C=C2\OC(O)=C(c3cc(Cl)cc(Cl)c3)C2=O)cc1C , the logged pIC50 turned out to be 4.28

So for Cc1cc(/C=C2\OC(O)=C(c3cccc(Cl)c3)C2=O)ccc1-c1ccccc1C(F)(F)F , the logged pIC50 turned out to be 4.48

###

Data export: pIC50 values recorded with UDP-N-acetylglucosamine 1-carboxyvinyltransferase (Escherichia coli K-12).
pIC50: −log10 of the molar value.

Worked examples, 5 molecules total:
structure_string | pIC50
COc1ccc(C2=C(O)O/C(=C\c3cccc4ccccc34)C2=O)cc1 | < 4.14
O=C1O/C(=C\C2CCCCC2)C(O)=C1c1cccc(C(F)(F)F)c1 | < 4.13
O=C1O/C(=C\c2cc(C(F)(F)F)ccc2Cl)C(O)=C1c1ccc(N2CCOCC2)c(F)c1 | < 4.27
O=C1O/C(=C\c2cccc(C(F)(F)F)c2)C(O)=C1c1cccc2ccccc12 | < 4.18
O=C1O/C(=C\c2cccc3ccccc23)C(O)=C1c1ccc(Cl)cc1 | < 4.14

Now turn to the next molecule.
Value sought: pIC50, system UDP-N-acetylglucosamine 1-carboxyvinyltransferase (Escherichia coli K-12), item O=C1O/C(=C\c2ccc(-c3ccccc3)cc2)C(O)=C1c1ccc2ccccc2c1 . Result: < 4.19

###

Recorded IC50 values for a group of compounds are listed next.
- target_or_system: UDP-N-acetylglucosamine 1-carboxyvinyltransferase (Escherichia coli K-12, UniProt P0A749)
- Sequence (P0A749 whole entry): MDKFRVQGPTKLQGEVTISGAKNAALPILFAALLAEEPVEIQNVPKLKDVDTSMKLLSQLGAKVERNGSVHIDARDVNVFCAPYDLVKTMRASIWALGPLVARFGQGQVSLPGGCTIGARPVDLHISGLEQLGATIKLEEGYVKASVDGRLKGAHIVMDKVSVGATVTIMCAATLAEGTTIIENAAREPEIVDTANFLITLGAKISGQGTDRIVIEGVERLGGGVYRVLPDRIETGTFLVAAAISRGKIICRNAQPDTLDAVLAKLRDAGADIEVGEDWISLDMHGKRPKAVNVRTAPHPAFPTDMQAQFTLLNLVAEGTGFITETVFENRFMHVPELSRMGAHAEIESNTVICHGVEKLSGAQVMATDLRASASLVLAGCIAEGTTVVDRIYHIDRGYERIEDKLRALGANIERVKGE

Worked examples, 3 compounds total:
structure_string | result
O=C1O/C(=C\c2ccc(Cl)cc2)C(O)=C1c1ccc(-c2ccccc2)cc1 | > 66.7 µM
O=C1O/C(=C\c2ccc3ccccc3c2)C(O)=C1c1cccc(C(F)(F)F)c1 | > 65.4 µM
COc1ccc(C2=C(O)O/C(=C\c3cccc(C(F)(F)F)c3)C2=O)cc1 | > 69 µM

Now turn to the next compound.
Value sought: IC50, system UDP-N-acetylglucosamine 1-carboxyvinyltransferase (Escherichia coli K-12, UniProt P0A749), item O=C1O/C(=C\c2cccc3ccccc23)C(O)=C1c1cccc(C(F)(F)F)c1 . Result: > 65.4 µM
